EXPERIMENTAL TARGET: Human immunodeficiency virus type 1 protease (Human immunodeficiency virus 1, UniProt Q72874, V82A)
ASSAY TEXT: Inhibitory concentration against TL3-resistant HIV(V82A) mutant
ENDPOINT: IC50 (µM)

SMILES REPRESENTATION	MEASUREMENT
CC(=O)N[C@@H](Cc1ccc(O)cc1)C(=O)N[C@H](C(=O)N[C@@H](Cc1ccccc1)[C@@H](O)C(=O)N[C@H]1Cc2ccc(cc2)OCCCNC(=O)[C@H](C(C)C)NC1=O)C(C)C	0.011
CC(=O)N[C@@H](Cc1ccccc1)C(=O)N[C@H](C(=O)N[C@@H](Cc1ccccc1)[C@@H](O)C(=O)N[C@H]1Cc2ccc(cc2)OCCCNC(=O)[C@H](C(C)C)NC1=O)C(C)C	0.012
CC(=O)N[C@@H](Cc1c[nH]c2ccccc12)C(=O)N[C@H](C(=O)N[C@@H](Cc1ccccc1)[C@@H](O)C(=O)N[C@H]1Cc2ccc(cc2)OCCCNC(=O)[C@H](C(C)C)NC1=O)C(C)C	0.01
